# studyTarget: RSV F protein of subtype A (strain A2) on recombinant mKate-RSV (respiratory syncytial virus subtype A …, UniProt P03420 26-574)
# methodDescription: cell-based or functional assay
measuredEndpoint: Neut IC50 subtype A (µg/mL)
Numbers only, in µg/mL.

Give Neut IC50 subtype A for each of the items listed below.
1. ADI-18993 (antibody, V domains shown) VH: EVQLVESGGGLVKPGGSLRLSCAASGFTLSSYAMNWVRQAPGKGLEWVSSISAGSSYIDYADSVKGRFTISRDNAKNSLYLQMNNLRAEDTALYYCAREVLPATAIGGAWLDPWGQGTLVTVSS VL: QSVLTQPPSVSGAPGQTVTISCTGSSSNIGAGYDVHWYRQLPGTAPKLLIYSNNNRPSGVPDRFSGSKSDTSASLAITGLQAGDEADYYCQSYDISLSASYVFGTGTKVTVL
2. ADI-19003 (antibody, V domains shown) VH: QVQLQESGPGLVKPSETLSLTCSVSGGSITNVNYYWGWIRQPPGKGLEWIGSIYYNGNTYYNPSLQSRVTMSVDTSKNHFSLRLTSVTAADTAVYFCAREGPNWELLNAFDIWGQGTTVTVSS VL: SYELTQPPSVSVAPGQTARITCGGNNIGSKNVHWYQQKPGQAPVLVVYEDTHRPSGIPERFSGSNSGNTATLTISRVEAGDEADYYCQVWDTSSDHVVFGGGTKLTVL
3. ADI-18992 (antibody, V domains shown, full-length IgG; also called Antibody Number 340) VH: QVQLVQSGAEVKKPGASVKVSCKASGYIFTGYFIHWVRQAPGQGLEWMGVINPRGGSTSYAQKFQGRVAVSRDTSTTTVYMELNSLRSEDTAVYYCARAPSHDEWVAISRNNDVVGFDAWGQGTLVTVSS VL: QSVLTQPPSVSGAPGQRVTISCTGGSSNIGADYDVHWYQQPPGTAPKLLIFANNNRPSGVPGRFSGSKSGTSASLAITGLQAEDEADYYCQSYDSSLSAWVFGGGTKLTVL
4. ADI-19006 (antibody, V domains shown) VH: EVQLVESGGGLVKPGESVKLSCAASGFTITDSYMAWIRQSPGKGLEWLAYISSTSLFTDYTDSVKGRFIITRDNAENSLYLQMTSLTPADTGVYFCARAKTSYYFYALDVWGPGTLVTVSS VL: ETTLTQSPGTLSLSPGERATLSCRASQSVNNNYLAWFQHKPGQAPRLLIYNASNRAAGIPDRFSGSGSGTDFTLTISKLEPGDSAVYYCQRYGNSWPFGQGTKVEIK
5. ADI-19002 (antibody, V domains shown) VH: EVQLVESGPGLVKPSETLSLTCTVSGGSVSGHYWSWIRQFPGKELEWIGHIYYIGTTNYNPSLKSRVIISLDTSKNQLSLKLSSVTAADTAVYYCARQFGYDKNTLSRLDFDYWGQGTLVTVSS VL: DIQMTQSPSSLSASVRDRVTITCRASQSISSYLNWYQQRPGKAPKLLIYSAFSLHSGVPSRFSGSGSETEFTLTISSLQPDDFATYYCQQSYSIPWTFGQGTKVEIK
6. ADI-19017 (antibody, V domains shown) VH: QVQLVQSGAEVKKPGASVRVTCKASGYTFTDYFMNWVRQAPGGGLEWMGWINPLSGVTKYAQQFQGSVTMTTDTSITTGYMELRSLRVDDTAVYYCASQSSPYTPGAMGVWGQGTTVTVSS VL: SYELIQLPSVSVSPGQTARITCSGDALPKQYAYWYQQKPGQAPVLVIYKDSERPSGIPERFSGSSSGTTVTLTISGVQAEDEADYYCQSADSSGTYPVVFGGGTKLTVL

Reply text:
0.078
0.047
2.55
4.89
2.89
1.56

Give Neut IC50 subtype A for each of the items listed below.
1. ADI-18991 (antibody, V domains shown) VH: EVQLVESGPGLVKPSETLSLSCIVSGDSITSNDYYWSWIRQSPGKGLEWIGYIYHSGATFYTPSLRSRVTISTDRSKNQFSLRLSSVTAADTAVYYCASGPVGMATSNWFDPWGQGTLVTVSS VL: QPVLTQPPSVSVAPGKTATLTCGGDIIRTNSVNWYQQKPGQAPVLIIYYDSDRPSGIPGRFSASNSGSAATLTISRVEAGDEADYYCQVWDSSTDYHVVFGGGTKLTVL
2. ADI-19013 (antibody, V domains shown, full-length IgG; also called Antibody Number 361) VH: QVQLVQSGAEVKKPGESLKISCKGSGYSFSSYWIGWVRQMPGKGLEWMGIIYPGDSDTRYSPSLQGQVTISGDKSISTAFLQWSSLKASDTAMYYCARPMTTQEGFDLWGQGTMVTVSS VL: DIRLTQSPSSVSASVGDRVTITCRASQGISDWLAWYQQKPGKAPKLLIYAASSLQSGVPSRFSGSGSGTDFTLTISSLQPEDFATYYCQQTNSFLPLTFGGGTKVDIK

Reply text:
1. 0.028
2. 9.5
